testMethodNotes: collision cross section in nitrogen (drift tube, single-field); higher = larger gas-phase ion size;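 also: chemical standards at 10 µM analysed by drift tube IMS-QTOF MS in about 3.95 torr nitrogen, mean of duplicate injections differing ≤1%, mass error below 10 ppm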
particulars: ion type: [M+H]; ion source: ESI; ion mode: Positive
Structures can show the parent of a compound that is named as a salt.
parameterMeasured: collision cross section in nitrogen (Å²)

CCOC(=O)CCN(SN(C)C(=O)Oc1cccc2c1OC(C)(C)C2)C(C)C
197.3
c1ccc(-c2ccccn2)nc1
127
C#CC(C)N(C)C(=O)Nc1ccc(Cl)cc1 (centres undefined)
153.7
COC1=CC(=O)C[C@@H](C)[C@]12Oc1c(Cl)c(OC)cc(OC)c1C2=O
181.6
Cc1ccc(Nc2ccc(O)c3c2C(=O)c2ccccc2C3=O)cc1
176.7
O=c1cc(-c2ccccc2)oc2c1ccc1ccccc12
160.7
CCN(Cc1cccc(S(=O)(=O)O)c1)c1ccc(C(=C2C=CC(=[N+](CC)Cc3cccc(S(=O)(=O)[O-])c3)C=C2)c2ccccc2)cc1
254.3
Cc1cc(C)nc(Nc2ccccc2)n1
143.8
O=C(c1ccc(OCCN2CCCCC2)cc1)c1c(-c2ccc(O)cc2)sc2cc(O)ccc12 [Raloxifene hydrochloride]
215.2
CCN(CC)c1ccc(C(=C2C=CC(=[N+](CC)CC)C=C2)c2ccc(S(=O)(=O)O)cc2S(=O)(=O)[O-])cc1 [C.I. Acid Blue 1, sodium salt]
243
CCOc1cc([N+](=O)[O-])c(OCC)cc1N1CCOCC1
173.2
CCOC(=O)COc1cc(-n2ncc(C(F)(F)F)c(C)c2=O)c(F)cc1Cl
182.1
Cc1[nH]cnc1C[C@H]1CCc2c(C)c3ccccc3n2C1=O [Fabesetron hydrochloride]
174.8
CC(O)CN(CCCN(C)C)CCCN(C)C (centres undefined) [1-{Bis[3-(dimethylamino)propyl]amino}propan-2-ol]
158.1
Nc1ccc(S(=O)(=O)Nc2nccs2)cc1
153.9
Cc1cc(C2(c3cc(C)c(O)cc3C)OS(=O)(=O)c3ccccc32)c(C)cc1O
194.5
CN(C)CCN(Cc1cccs1)c1ccccn1 [Methapyrilene hydrochloride]
157.6
CCc1nn(C)c(C(=O)NCc2ccc(C(C)(C)C)cc2)c1Cl
193
C#C[C@]1(O)CC[C@H]2[C@@H]3CCC4=CC(=O)CC[C@@H]4[C@H]3CC[C@@]21C
178.1

----------
testMethodNotes: collision cross section in nitrogen (drift tube, single-field); higher = larger gas-phase ion size
particulars: ion type: [M+Na]; ion source: ESI; ion mode: Positive
Counter-ions that a name gives are not always drawn.
parameterMeasured: collision cross section in nitrogen (Å²)

O=C(NC(=O)c1cc(F)c(F)cc1Cl)Nc1cc(F)ccc1N1CCC(C(=O)O)CC1
195.9
CCCCCCCCCCCCN1CCCCCC1=O
185.4
CCNC(=O)C1CC(C)CCC1C(C)C (configuration not stated) [N-Ethyl-2-(isopropyl)-5-methylcyclohexanecarboxamide]
171.3
O=[N+]([O-])c1cc(N(CCO)CCO)ccc1NCCO
177.5
COP(=S)(OC)Oc1ccc(S(=O)(=O)N(C)C)cc1
173.8
CN(C)CCCN1c2ccccc2CCc2ccccc21 [Imipramine hydrochloride]
172.7
CCOP(=S)(OCC)OP(=S)(OCC)OCC
172.2

----------
testMethodNotes: collision cross section in nitrogen (drift tube, single-field); higher = larger gas-phase ion size
particulars: ion type: [M+]; ion source: APCI; ion mode: Positive
Structures can show the parent of a compound that is named as a salt.
parameterMeasured: collision cross section in nitrogen (Å²)

CC(C)(C)c1cc(-n2nc3ccccc3n2)c(O)c(C(C)(C)C)c1 [2-(2'-Hydroxy-3',5'-di-tert-butylphenyl)benzotriazole]
186
Cc1cc(-c2ccc(N)c(C)c2)ccc1N [3,3'-Dimethylbenzidine]
150.8
CCCCNc1ccc(NCCCC)c2c1C(=O)c1ccccc1C2=O [1,4-Bis(butylamino)anthracene-9,10-dione]
190.2
O=C(O)c1ccccc1Nc1cccc(C(F)(F)F)c1 [Flufenamic acid]
157.7
COc1ccc(Nc2ccccc2)c(C)c1 [4-Methoxy-2-methyl-N-phenylaniline]
148.1
Cc1cccc(Nc2ccccc2)c1 [3-Methyl-N-phenylaniline]
139.3
COc1cc(-c2ccc(N)c(OC)c2)ccc1N [C.I. Disperse Black 6]
156.6
Nc1ccc(Oc2ccc(N)cc2)cc1 [4,4'-Oxydianiline]
146.6
c1ccc2c(c1)-c1ccc3ccc4cccc5cc-2c1c3c45 [Indeno[1,2,3-cd]pyrene]
156.7
Nc1ccc(Sc2ccc(N)cc2)cc1 [4,4'-Thiodianiline]
148.1
COCCCOc1ccnc(CS(=O)c2nc3ccccc3[nH]2)c1C (stereo not drawn) [Rabeprazole sodium]
187.8
Cc1ccc2ncccc2c1 [6-Methylquinoline]
124.3
Nc1c2ccccc2nc2ccccc12 [9-Aminoacridine hydrochloride monohydrate]
139
Cc1[nH]nc2c1N=C(c1ccccc1Cl)c1cc([N+](=O)[O-])ccc1N2
180.3
CC#Cc1cc(C)nc(Nc2ccccc2)n1 [Mepanipyrim]
147.3
Oc1c(I)cc(I)cc1I [2,4,6-Triiodophenol]
139.5
Nc1ccc(N)c2c1C(=O)c1ccccc1C2=O [1,4-Diaminoanthraquinone]
147.5
c1ccc2c(c1)Nc1ccccc1S2 [Phenothiazine]
136
c1ccc2c(c1)sc1ccccc12 [Dibenzothiophene]
130.2
CC1CN(c2ccccc2)NC1=O (stereo not drawn) [4-Methyl-1-phenylpyrazolidin-3-one]
138
COc1ccc(O)cc1 [4-Methoxyphenol]
123.7
Nc1c(Oc2ccccc2)cc(O)c2c1C(=O)c1ccccc1C2=O [C.I. Disperse Red 60]
172.6
Nc1nc(N)c2nc(-c3ccccc3)c(N)nc2n1 [Triamterene]
155

Values were extracted from the supplement of paper PMC12317010.
